Parameter pIC50: see the listing below.
# MEASUREMENT_TARGET: human TLR9 (Homo sapiens (Human), UniProt Q9NR96)
# Sequence (Q9NR96 26-1032): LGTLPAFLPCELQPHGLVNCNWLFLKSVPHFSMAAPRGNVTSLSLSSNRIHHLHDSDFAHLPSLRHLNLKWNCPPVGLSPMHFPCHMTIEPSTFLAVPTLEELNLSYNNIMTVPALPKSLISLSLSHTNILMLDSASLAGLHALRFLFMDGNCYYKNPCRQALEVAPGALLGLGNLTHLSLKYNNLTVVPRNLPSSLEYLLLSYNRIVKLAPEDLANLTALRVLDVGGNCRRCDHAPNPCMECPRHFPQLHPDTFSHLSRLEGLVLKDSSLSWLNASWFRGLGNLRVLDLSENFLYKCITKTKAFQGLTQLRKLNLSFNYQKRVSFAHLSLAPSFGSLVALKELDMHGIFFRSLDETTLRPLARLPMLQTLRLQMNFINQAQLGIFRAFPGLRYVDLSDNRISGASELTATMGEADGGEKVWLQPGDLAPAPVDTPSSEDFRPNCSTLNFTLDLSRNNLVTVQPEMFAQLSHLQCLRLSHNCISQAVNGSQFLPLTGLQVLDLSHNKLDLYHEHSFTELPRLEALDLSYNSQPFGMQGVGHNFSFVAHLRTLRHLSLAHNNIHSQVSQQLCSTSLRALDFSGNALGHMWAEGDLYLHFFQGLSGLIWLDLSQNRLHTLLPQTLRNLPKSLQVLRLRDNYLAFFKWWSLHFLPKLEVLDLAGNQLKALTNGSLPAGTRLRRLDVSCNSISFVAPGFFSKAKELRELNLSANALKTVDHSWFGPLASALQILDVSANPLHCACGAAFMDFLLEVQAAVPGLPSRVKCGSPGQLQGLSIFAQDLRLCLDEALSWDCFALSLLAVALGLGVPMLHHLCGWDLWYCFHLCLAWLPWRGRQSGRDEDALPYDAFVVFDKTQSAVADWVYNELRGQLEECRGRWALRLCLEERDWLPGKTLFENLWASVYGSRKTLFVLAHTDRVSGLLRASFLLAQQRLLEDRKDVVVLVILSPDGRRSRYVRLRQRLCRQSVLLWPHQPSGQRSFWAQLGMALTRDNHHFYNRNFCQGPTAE
# PROTOCOL_DESCRIPTION: TLR9 inhibition reporter assay (HEK-Blue cells, SEAP reporter, ODN2006 stimulation);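 further: compounds tested over 0.05 nM to 50 µM, 22 h incubation, inhibition taken as SEAP signal drop from agonist plus DMSO wells toward a known inhibitor control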
# CONDITIONS: read-out: TLR9 IC50, HEK-Blue cells, ODN2006 5 nM
pIC50: −log10 of the molar value.
MEASUREMENT_LABEL: pIC50

> print(dat)
                                    molecule  inequality.sign  result
 1  Cc1cc(-c2[nH]c3ccc(C4CCN(CC5CCCCC5)CC4)cc3c2C(C)C)ccn1                =    6.03
 2  CC(=O)N1CCC(N2CCC(c3ccc4[nH]c(-c5ccnc(C)c5)c(C(C)C)c4c3)CC2)CC1                =    6.12
 3  Cc1cc(-c2[nH]c3ccc(C4CCN(C(=O)C(=O)NCC5CCNCC5)CC4)cc3c2C(C)C)cc(C)n1                =    5.47
 4  Cc1cc(-c2[nH]c3cc(F)c(C4CCN(C5CC(C)OC(C)C5)CC4)cc3c2C(C)C)cc(C)n1 (stereo not drawn) [Example 833]                =    6.25
 5  Cc1cc(-c2[nH]c3cc(F)c(C4CCN(C5CCOCC5)CC4)cc3c2C(C)C)cc(C)n1                =    6.25
 6  CCc1c(-c2ccnc(C)c2)[nH]c2ccc(C3CCN(C(=O)NC4CCN(C(=O)C(F)(F)F)CC4)CC3)cc12                <    4.30
 7  COc1cc(-c2[nH]c3ccc(C4CCN(C5CCN(C)CC5)CC4)cc3c2C)ccn1                =    6.21
 8  Cc1cc(-c2[nH]c3ccc(C4CCN(C5CCN(C(C)C)CC5)CC4)cc3c2C)ccn1                =    7.64
 9  CCc1c(-c2ccnc(C)c2)[nH]c2ccc(C3CCN(CC(O)CN(C)C(C)C)CC3)cc12 (stereo not drawn)                =    7.80
10  Cc1cc(-c2[nH]c3cc(F)c(C4CCN(C5CCN(C(C)C)CC5)CC4)cc3c2C(C)C)ccn1                =    6.42
11  Cc1cc(-c2[nH]c3ccc(C4CCN(C5CCN(C(C)C)CC5)CC4)cc3c2C)cc(C)n1                =    7.38
12  Cc1cc(-c2[nH]c3ccc(C4CCN(Cc5cnc[nH]5)CC4)cc3c2C(C)C)ccn1                =    6.68
13  Cc1nc[nH]c1CN1CCC(c2ccc3[nH]c(-c4ccnc(N)c4)c(C(C)C)c3c2)CC1                =    7.07
14  Cc1cc(-c2[nH]c3cc(F)c(C4CCN(CC(=O)N(C)C)CC4)cc3c2C(C)C)c(C)cn1                =    5.71
15  Cc1ncc(CN2CCC(c3ccc4[nH]c(-c5ccnc(N)c5)c(C(C)C)c4c3)CC2)[nH]1                =    6.64
16  Cc1cc(-c2[nH]c3ccc(C4CCN(C(=O)C(=O)N5CCNCC5)CC4)cc3c2C(C)C)cc(C)n1                =    6.36
17  Cc1c(-c2ccncc2)[nH]c2ccc(C3CCN(C4CCN(C)CC4)CC3)cc12                =    7.03
18  Cc1cc(-c2[nH]c3cc(F)c(C4CCN(Cc5ncn(C)n5)CC4)cc3c2C(C)C)cc(C)n1                =    5.51
19  COc1cc(-c2[nH]c3ccc(C4CCN(C5CCN(C(C)C)CC5)CC4)cc3c2C)ccn1                =    6.42
20  COC[C@H](O)CN1CCC(c2ccc3[nH]c(-c4cc(C)nc(C)c4)c(C(C)C)c3c2)CC1                =    6.20
21  CC(=O)N1CCC(c2ccc3[nH]c(-c4ccnc(C)c4)c(C(C)C)c3c2)CC1                =    4.36
22  CCc1c(-c2ccncc2)[nH]c2ccc(C3CCN(C4CCN(CC)CC4)CC3)cc12                =    6.51
23  CCc1c(-c2ccncc2)[nH]c2ccc(C3CCN(Cc4cnc(Nc5ccccn5)s4)CC3)cc12                =    5.96
24  Cc1cc(-c2[nH]c3ccc(C4CCN(CC5CC5)CC4)cc3c2C(C)C)c(C)cn1                =    5.74

----------
Parameter IC50: see the listing below.
# MEASUREMENT_TARGET: UniProtKB Q9NR96
# PROTOCOL_DESCRIPTION: TLR9 inhibition reporter assay (HEK-Blue cells, SEAP reporter, ODN2006 stimulation)
# CONDITIONS: read-out: TLR9 IC50, HEK-Blue cells, ODN2006 5 nM
MEASUREMENT_LABEL: IC50 (nM)

> print(dat)
                                    compound  inequality.sign  result
 1  Cc1cc(-c2[nH]c3cc(F)c(C4CCN(C5CC(C)OC(C)C5)CC4)cc3c2C(C)C)cc(C)n1 (stereo not drawn) [Example 830]                =     229
 2  Cc1cc(-c2[nH]c3ccc(C4CCN(CC(O)C(C)(C)C)CC4)cc3c2C(C)C)cc(C)n1 (stereo not drawn)                =     312
 3  Cc1cc(-c2[nH]c3ccc(C4CCN(CC(=O)O)CC4)cc3c2C(C)C)cc(C)n1                =   10100
 4  Cc1cc(-c2[nH]c3cc(F)c(C4CCN(CC(=O)N(C)C)CC4)cc3c2C(C)C)c(F)cn1                =    4730
 5  CNC(=O)C(=O)N1CCC(c2ccc3[nH]c(-c4ccnc(C)c4)c(C(C)C)c3c2)CC1                >   50000
 6  Cc1cc(-c2[nH]c3ccc(C4CCN(Cc5cnc(C)[nH]5)CC4)cc3c2C(C)C)ccn1                =     192
 7  Cc1cc(-c2[nH]c3ccc(C4CCN(CC5(C)COC5)CC4)cc3c2C(C)C)c(C)cn1                =    2320
 8  Cc1cc(-c2[nH]c3ccc(C4CCN(CC(O)C(C)C)CC4)cc3c2C(C)C)cc(C)n1 (stereo not drawn) [Example 855]                =    3300
 9  Cc1c(-c2ccncc2)[nH]c2ccc(C3CCN(C4CCN(C(C)C)CC4)CC3)cc12                =      38
10  C=CC(C)(O)CN1CCC(c2ccc3[nH]c(-c4cc(C)nc(C)c4)c(C(C)C)c3c2)CC1 (stereo not drawn)                =     293
11  Cc1cc(-c2[nH]c3ccc(C4CCN(C(C)C)CC4)cc3c2C(C)C)ccn1                =     803
12  Cc1cc(-c2[nH]c3ccc(C4CCN(CC5CCN(C(C)C)CC5)CC4)c(F)c3c2C(C)C)ccn1                =     445
13  Cc1cc(-c2[nH]c3cc(F)c(C4CCN(CC(=O)N(C)C)CC4)cc3c2C(C)C)cc(C)n1                =     194
14  Cc1cc(-c2[nH]c3ccc(C4CCN(C(=O)C(=O)N5CCN(C)CC5)CC4)cc3c2C(C)C)cc(C)n1                =     832
15  Cc1cc(-c2[nH]c3ccc(C4CCN(CC5(C)COC5)CC4)cc3c2C(C)C)ccn1                =     794
16  Cc1cc(-c2[nH]c3ccc(C4CCN(C=O)CC4)cc3c2C(C)C)cc(C)n1                >   50000
17  Cc1cc(-c2[nH]c3ccc(C4CCN(C(=O)C(=O)O)CC4)cc3c2C(C)C)cc(C)n1                >   50000
18  Cc1cc(-c2[nH]c3ccc(C4CCN(CC(O)CO)CC4)cc3c2C(C)C)cc(C)n1 (stereo not drawn)                =     159
19  CC(C)c1c(-c2ccnc(N)c2)[nH]c2ccc(C3CCN(C(=O)C4CCNCC4)CC3)cc12                =     712
20  Cc1cc(-c2[nH]c3ccc(C4CCN(C(=O)C(=O)N(C)CCN(C)C)CC4)cc3c2C(C)C)cc(C)n1                =     519
21  Cc1cc(-c2[nH]c3cc(F)c(C4CCN(C)CC4)cc3c2C(C)C)cc(C)n1                =     267

Source: patent US10660877B2
